Where these numbers come from: patent US20260363245A1

Please go through the items and note down their mortality.
- System: Western corn rootworm (Diabrotica virgifera virgifera)
- test summary: Test Method 5: Western corn rootworm, immersed corn seedling
- Format: in vivo
- test context: 200 ppm; corn seedling immersed 30 seconds; second-instar larvae; 5 days

For reference, reported mortality for `CCS(=O)(=O)c1cc(-c2ccc(Cl)cc2)cnc1N1CCn2nc(C(F)(F)F)cc2C1=O` stands at ≥ 80%

For reference, reported mortality for `CCS(=O)(=O)c1cc(Br)cnc1N1CCn2nc(C(F)(F)F)cc2C1=O` stands at ≥ 80%

For reference, reported mortality for `CCS(=O)(=O)c1cc(-c2ccc(F)cc2)cnc1N1CCn2nc(C(F)(F)F)cc2C1=O` stands at ≥ 80%

For reference, reported mortality for `CCS(=O)(=O)c1cc(C2CC2)cnc1N1CCn2nc(OC(F)F)cc2C1=O` stands at ≥ 80%

For reference, reported mortality for `CCS(=O)(=O)c1c(N2CCn3nc(OC(F)F)cc3C2=O)nc2ccc(I)cn12` stands at ≥ 80%
